Reference source: PubChem BioAssay (NCI)

- Test system: UACC-257 melanoma
- assayExplanation: NCI-60 one-dose screen, 48 h (100 = growth as untreated, 0 = no growth, -100 = all killed)
- statedConditions: 10 µM unless noted
The panel holds about 83,000 compounds, 20% with a hit somewhere; the sample as a whole holds those more often.
quantityMeasured: growth (%)
The figure you give is taken to be in %; do not add the unit.

Some entries whose results are on file:
INSERT INTO assay_data (molecule, testvalue) VALUES
  ('Cc1cc(N(CCCl)CCCl)ccc1C=Nc1ccc(-c2csc(Cc3ccccc3)n2)cc1', 46.2),
  ('CCCCCC1(CCBr)C(=O)NC(=O)NC1=O', 91),
  ('O=C(NCCN1CC1)C(=O)NCCN1CC1', 85.1),
  ('C[C@]12CCc3sc(-c4cccc(F)c4)nc3C1=CC[C@@H]1[C@@H]2CC[C@]2(C)C(=O)CC[C@@H]12', 77.4),
  ('CCCOC(=O)N[C@H]1CCc2c(Br)c(OC)c(OC)c(OC)c2-c2ccc(SC)c(=O)cc21', 64.5),
  ('C[C@]12CC[C@H]3[C@@H](CC4SC(N)=NC45C/C(=N/NC(N)=O)CC[C@]35C)[C@@H]1CCC2=O (stereo partly drawn)', 105);

Exercise: Report growth for CCOC(=O)[C@@H](C)C[C@H](Cc1ccccc1)NC(=O)c1csc([C@@H](C[C@H](C(C)C)N(C)C(=O)[C@@H](NC(=O)[C@H]2CCCCN2C)C(C)(C)CC)OC(C)=O)n1
Key: 48.1

Exercise: For the molecule CC(=O)O[C@H](C[C@H](C(C)C)N(C)C(=O)[C@@H](NC(=O)[C@H]1CCCCN1C)C(C)C)c1nc(C(=O)N[C@@H](Cc2ccccc2)C[C@H](C)C(=O)O)c(C(C)C)s1 , give its reported growth.
Key: 41.5

Exercise: State, in one line, measured growth of CCC1CN1CCCCN1CC1CC (stereo not drawn)
Key: 97

Exercise: Let me know recorded growth for COC(=O)[C@]12CCC(C)(C)C[C@H]1[C@H]1C(=O)C[C@@H]3[C@@]4(C)C[C@@]5(CC(C)(C)[C@@H]4CC[C@@]3(C)[C@]1(C)CC2)OO[C@@](C)(C(F)(F)F)O5 , thanks.
Key: 102

Exercise: Look up and report measured growth for this entry: Cn1cc(C=O)c2nccnc21
Key: 102

Exercise: Report measured growth; entry is COC(=O)[C@H](Cc1c[nH]c2ccccc12)NC(=O)[C@@H](OC)[C@@H]1Cc2cc3cc(OC4CC(OC5CC(O)C(O)C(C)O5)C(O)C(C)O4)c(C)c(O)c3c(O)c2C(=O)[C@H]1OC1CC(OC2CC(OC3CC(C)(O)C(O)C(C)O3)C(O)C(C)O2)C(O)C(C)O1 (stereo partly drawn)
Key: -5

Exercise: In one line, give reported growth of the entry C[C@@]1(CCCCCCCCCc2ccc(O)cc2)C[C@]2(C)OC(=O)C[C@@H]2OO1 .
Key: 102

Exercise: Identify measured growth corresponding to C/C(CC(C)(C)N1CC1)=N\NC(=O)Nc1cccc2ccccc12
Key: 86.4

###

compounds and their reported growth
- Test system: K-562 leukemia
- assayExplanation: NCI-60 one-dose screen, 48 h (100 = growth as untreated, 0 = no growth, -100 = all killed)
- statedConditions: 10 µM unless noted
Compounds without any hit were thinned out: in the full panel of roughly 83,000, 20% have a hit.
Response body: numeric value in %, unit text excluded.

Here is how some compounds turned out for growth.
INSERT INTO results (compound, quantitymeasured, testvalue) VALUES
  ('O=C1N[C@@H]2[C@@H](O)[C@@H](O)[C@H](O)C[C@H]2c2cc3c(c(O)c21)OCO3', 'growth', 1.86),
  ('CC(=O)O[C@H](C[C@H](C(C)C)N(C)C(=O)[C@@H](NC(=O)[C@H]1CCCCN1C)C(C)C)c1nc(C(=O)N[C@@H](Cc2ccccc2)C[C@H](C)C(=O)O)c(CCOCc2ccccc2)s1', 'growth', 7.14),
  ('CCOP1(=O)CC(C)=C(Cl)C(P(=O)(OCC)OCC)C1 (stereo unspecified)', 'growth', 110),
  ('COc1ccc(NC([Se])=NC23CC4CC(CC(C4)C2)C3)cc1', 'growth', 12.3),
  ('CCOC(=O)[C@@H](C)C[C@H](Cc1ccccc1)NC(=O)c1csc([C@@H](C[C@H](C(C)C)N(C)C(=O)[C@H](CC)NC(=O)[C@H]2CCCCN2C)OC(C)=O)n1', 'growth', 6.71);

Next, consider the following compound.
Exercise: Please indicate growth recorded for NC(=S)c1cn(C2OC(CO)C(O)C2O)c2ncnc(N)c12 (stereo unspecified)
Key: -42.3

###

- System: SK-MEL-5 melanoma
- assayExplanation: NCI-60 one-dose screen, 48 h
- statedConditions: 10 µM unless noted
The panel holds about 83,000 compounds, 20% with a hit somewhere; the sample as a whole holds those more often. Calls of active or inactive are those of the source. The calls were made as follows: active = growth percent below 10; inactive = the rest.
Bench note: report the call from active, inactive

Some entries whose results are on file:
INSERT INTO measurements (molecule, classassignment) VALUES
  ('CC(C)(N)Cc1ccccc1', 'inactive'),
  ('CCN1C(=O)C(=C/C=C/c2ccccc2)C(=O)N(CC)C1=O', 'inactive'),
  ('CC(=O)O[C@H](C[C@H](C(C)C)N(C)C(=O)[C@@H](NC(=O)[C@H]1CCCN1C)C(C)C)c1nc(C(=O)N[C@@H](Cc2ccccc2)C[C@H](C)C(=O)O)c(C)s1', 'active');

Exercise: What outcome does the record of this test show for ClCCN(CCCl)c1nc(Cl)c(C2CC(c3ccccc3)=NN2c2cc(Cl)cc(Cl)c2)s1 (centres undefined) ?
Key: inactive

###

- Tested on: RPMI-8226 leukemia
- assayExplanation: NCI-60 one-dose screen, 48 h
- statedConditions: 10 µM unless noted
Compounds without any hit were thinned out: in the full panel of roughly 83,000, 20% have a hit. Calls of active or inactive are those of the source. Rule for the calls: active = growth percent below 10; inactive = the rest.
The reply should be one of these categories: active, inactive

The following molecules have reported results that may help.
INSERT INTO assay_data (molecule, classassignment) VALUES
  ('CC1=C(O)[C@@](C)(CCCCC[C@H](C)CCCCc2ccc(O)cc2)OOC1=O', 'inactive'),
  ('O=C(O)c1c(Cl)n(Cc2ccc(O)cc2)c2ccc(O)cc12', 'inactive'),
  ('CC(=O)OC1CCC2C3CCC4=C/C(=N/OC(=O)c5ccc(N(CCCl)CCCl)cc5)CCC4(C)C3CC(C)C12 (stereo not given)', 'inactive');

Exercise: // param item: CC12CC(=O)C3(SC#N)C(CCC4=CC(=O)CCC43C)C1CCC2=O (stereo not given) ; yields the recorded call
Key: inactive

Exercise: Just curious, what result did O=C(N/N=C/c1ccc(N(CCCl)CCCl)cc1)c1cccc2ccccc12 get here?
Key: inactive

Exercise: Per the assay record, what outcome was assigned to C/C(=C\c1ccn(-c2ccc(N)c(F)c2)n1)[C@@H]1C[C@@H]2O[C@]2(C)CCC[C@H](C)[C@H](O)[C@@H](C)C(=O)C(C)(C)[C@@H](O)CC(=O)O1 ?
Key: active

Exercise: Status in this test for COC(=O)[C@@]1(O)C[C@H]2O[C@]1(C)n1c3ccccc3c3c4c(c5c6ccccc6n2c5c31)C(=O)NC4 ?
Key: active

###

Entries and their growth
- System: NCI-H23 lung
- assayExplanation: NCI-60 one-dose screen, 48 h (100 = growth as untreated, 0 = no growth, -100 = all killed)
- statedConditions: 10 µM unless noted
About 83,000 compounds went through this panel and 20% of them were active in at least one assay; those are over-represented in the sample as a whole.
Number in %, nothing else.

In the examples that follow, each entry is paired with its recorded growth.
INSERT INTO measurements (compound, unitssymbol, testvalue) VALUES
  ('O=C(CN1CCN(C(=O)c2ccco2)CC1)Nc1ccc(Cl)cc1C(=O)c1ccccc1Cl', '%', 85.3),
  ('C[N+]12CN3CN(CN(C3)C1)C2', '%', 94.3);

Exercise: Identify measured growth corresponding to COc1cccc(C=NC(Cc2cnc[nH]2)C(=O)O)c1O (centres undefined)
Key: 107

Exercise: Kindly indicate its recorded growth. Item: CCC1CN1CCCCN1CC1CC (centres undefined)
Key: 104

###

- System: MOLT-4 leukemia
- assayExplanation: NCI-60 one-dose screen, 48 h
- statedConditions: 10 µM unless noted
Compounds without any hit were thinned out: in the full panel of roughly 83,000, 20% have a hit. Calls of active or inactive are those of the source. The calls were made as follows: active = growth percent below 10; inactive = the rest.
Permitted responses: yes for active, no for inactive

Exercise: # fetch the recorded call for CC(=O)O[C@H]1C(=O)[C@@]2(C)[C@H]([C@H](OC(=O)c3ccccc3)[C@]3(O)C[C@H](OC(=O)[C@H](OC(=O)OCC4COC(C)(C)O4)[C@@H](NC(=O)c4ccccc4)c4ccccc4)C(C)=C1C3(C)C)[C@]1(OC(C)=O)CO[C@@H]1C[C@@H]2O (some centres undefined) here
Key: no

Exercise: Hey, what did the test say about CCCCN(CCCC)P(=O)(Oc1ccccc1)Oc1ccccc1 ?
Key: no

Exercise: What was the test verdict on CC1=C(CNO)C2=C(C)C3(CC3)[C@@](C)(O)C(=O)C2=C1 ?
Key: no

Exercise: So what was the verdict on CCn1c2ccccc2c2cc(C(=O)c3cccc4c3CCCN4)ccc21 in this test?
Key: no

Exercise: For COc1cc([N+](=O)[O-])c2nc(C)ccc2c1[N+](=O)[O-] , what call appears in the results of this test?
Key: no
